System: A498 renal
Test description: NCI tumour cell line growth inhibition, 48 h; in the data active means GI50 below about 0.43 µM; inactive means the rest
Assign a class; possible classes are T = active, F = inactive

Inquiry: Outcome logged for COc1cccc(-c2nc(-c3ccc(NC(=O)C(C)C)cc3)[nH]c2-c2ccnc(Br)c2)c1 in this assay:
Reply text: F

Inquiry: Outcome logged for OC(c1cc(-c2ccc(C(F)(F)F)cc2)nc(-c2ccc(C(F)(F)F)cc2)c1)C1CCCCN1 (stereo not given) in this assay:
Reply text: F

Inquiry: Outcome logged for CCN1CCN(c2nc(C)cc(N(CCNc3ccnc4cc(Cl)ccc34)Cc3ccc4c(c3)OCO4)n2)CC1 in this assay:
Reply text: F

Inquiry: Outcome logged for CC(=O)[C@@]12O[C@@H]1CC1C3CCC4=CC(O)CCC4(C)C3CCC12C (stereo not given in full) in this assay:
Reply text: F

Inquiry: Outcome logged for CN1CCN(CCCn2c(=O)c3sc4ncccc4c3n3nnc(-c4ccccc4)c23)CC1 in this assay:
Reply text: T

The values you see were collected from PubChem BioAssay (NCI).
